Data credit: paper PMC7170309

measurement.kind: melting point

Solved entries (count: 3):
| compound | melting point |
| --- | --- |
| C[C@@H]1NC(c2ccc3oc(=O)ccc3c2)=Nc2nc3ccccn3c2C1=O [Compound 12] | 132.5 to 133.5 °C |
| [N-]=[N+]=NCCCC[C@@H]1NC(c2ccccc2)=Nc2nc3ccccn3c2C1=O [Compound 18] | 116 to 117 °C |
| C[C@@H]1NC(c2coc3ccccc23)=Nc2nc3ccccn3c2C1=O [Compound 7] | 164 to 165 °C |

Give recorded melting point. C[C@@H]1NC(c2ccc3ccccc3n2)=Nc2nc3ccccn3c2C1=O [Compound 11]
170 to 171 °C

State its melting point: CC(C)C[C@@H]1NC(c2ccc(Br)cc2)=Nc2nc3ccccn3c2C1=O [Compound 15]
72 to 73 °C

Tell me measured melting point for C[C@@H]1NC(c2ccc(C(=O)c3ccccc3)cc2)=Nc2nc3ccccn3c2C1=O [Compound 6] please.
132 to 133 °C

Respond only with melting point recorded for C[C@@H]1NC(c2ccc(C#C[Si](C)(C)C)cc2)=Nc2nc3ccccn3c2C1=O
115 to 116 °C

Consider the compound [N-]=[N+]=NCCCC[C@@H]1NC(c2ccc(Br)cc2)=Nc2nc3ccccn3c2C1=O [Compound 16] . State its measured melting point.
127 to 128 °C

---

- System: OVCAR-5
- test.summary: NCI-60 SRB assay, OVCAR-5 (Ovarian Cancer);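 further: mean growth across the NCI-60 panel minus this line's growth with positive meaning more sensitive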
- Type: cell-based, human
- measurement.conditions: 10 µM, 48 h
Each entry below lists one item and its recorded Mean G% - G% value.

Observe how each entry below is paired with its result.
| chemical.structure | observed |
| --- | --- |
| C[C@@H]1NC(c2ccc(Br)cc2)=Nc2nc3ccccn3c2C1=O | -28,14% |
| C[C@@H]1NC(c2csc3ccccc23)=Nc2nc3ccccn3c2C1=O | -32,82% |
| [N-]=[N+]=NCCCC[C@@H]1NC(c2ccc(Br)cc2)=Nc2nc3ccccn3c2C1=O | -11,70% |

Recall and state the measured Mean G% - G% for C[C@@H]1NC(c2ccc(N=[N+]=[N-])cc2)=Nc2nc3ccccn3c2C1=O .
-22,84%

---

- System: SNB-19
- test.summary: NCI-60 SRB assay, SNB-19 (CNS Cancer)
- Format: cell-based, human
- measurement.conditions: 10 µM, 48 h
measurement.kind: Mean G% - G%

Solved cases below.
| chemical.structure | Mean G% - G% |
| --- | --- |
| [N-]=[N+]=NCCCC[C@@H]1NC(c2ccc(Br)cc2)=Nc2nc3ccccn3c2C1=O | -3,35% |
| C[C@@H]1NC(c2ccc(N=[N+]=[N-])cc2)=Nc2nc3ccccn3c2C1=O | -4,44% |
| C[C@@H]1NC(c2csc3ccccc23)=Nc2nc3ccccn3c2C1=O | -4,95% |

Please examine the following record next.
Would you please give the reported Mean G% - G% of C[C@@H]1NC(c2ccc(Br)cc2)=Nc2nc3ccccn3c2C1=O with SNB-19?
-28,38%

---

- Test system: SK-MEL-5
- test.summary: NCI-60 SRB assay, SK-MEL-5 (Melanoma)
- Format: cell-based, human
- measurement.conditions: 10 µM, 48 h
measurement.kind: Mean G% - G%

| chemical.structure | study.target | observed |
| --- | --- | --- |
| C[C@@H]1NC(c2ccc(Br)cc2)=Nc2nc3ccccn3c2C1=O | SK-MEL-5 | 22,34% |
| [N-]=[N+]=NCCCC[C@@H]1NC(c2ccc(Br)cc2)=Nc2nc3ccccn3c2C1=O | SK-MEL-5 | 3,83% |
| C[C@@H]1NC(c2ccc(N=[N+]=[N-])cc2)=Nc2nc3ccccn3c2C1=O | SK-MEL-5 | 14,40% |

API: the following record is the query input.
Answer with reported Mean G% - G% of C[C@@H]1NC(c2csc3ccccc23)=Nc2nc3ccccn3c2C1=O
12,92%

---

- Tested on: HT29
- test.summary: NCI-60 SRB assay, HT29 (Colon Cancer)
- Assay type: cell-based, human
- measurement.conditions: 10 µM, 48 h, growth vs untreated control
measurement.kind: G%

Consider the following illustrative entries.
| compound | study.target | G% |
| --- | --- | --- |
| [N-]=[N+]=NCCCC[C@@H]1NC(c2ccc(Br)cc2)=Nc2nc3ccccn3c2C1=O [Compound 16] | HT29 | 105,90% |
| C[C@@H]1NC(c2csc3ccccc23)=Nc2nc3ccccn3c2C1=O [Compound 8] | HT29 | 85,45% |
| C[C@@H]1NC(c2ccc(Br)cc2)=Nc2nc3ccccn3c2C1=O [JMV5038] | HT29 | 17,52% |

Give the value of G% reported for the following: C[C@@H]1NC(c2ccc(N=[N+]=[N-])cc2)=Nc2nc3ccccn3c2C1=O [Compound 5]
74,80%

---

- Test system: LOX IMVI
- test.summary: NCI-60 SRB assay, LOX IMVI (Melanoma)
- Type: cell-based, human
- measurement.conditions: 10 µM, 48 h
Examples of molecules with documented Mean G% - G% follow.

| molecule | Mean G% - G% |
| --- | --- |
| [N-]=[N+]=NCCCC[C@@H]1NC(c2ccc(Br)cc2)=Nc2nc3ccccn3c2C1=O [Compound 16] | 5,56% |

Indicate the recorded Mean G% - G% value for this molecule: C[C@@H]1NC(c2ccc(Br)cc2)=Nc2nc3ccccn3c2C1=O [JMV5038]
1,80%

Note Mean G% - G% for the molecule shown: C[C@@H]1NC(c2ccc(N=[N+]=[N-])cc2)=Nc2nc3ccccn3c2C1=O [Compound 5]
4,81%

Please give measured Mean G% - G% of the following entry: C[C@@H]1NC(c2csc3ccccc23)=Nc2nc3ccccn3c2C1=O [Compound 8]
-18,67%

---

- Test system: MDA-MB-468
- test.summary: NCI-60 SRB assay, MDA-MB-468 (Breast Cancer);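 further: mean growth across the NCI-60 panel minus this line's growth with positive meaning more sensitive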
- Type: cell-based, human
- measurement.conditions: 10 µM, 48 h
measurement.kind: Mean G% - G%

| chemical.structure | measurement.kind | observed |
| --- | --- | --- |
| [N-]=[N+]=NCCCC[C@@H]1NC(c2ccc(Br)cc2)=Nc2nc3ccccn3c2C1=O | Mean G% - G% | -6,46% |
| C[C@@H]1NC(c2ccc(N=[N+]=[N-])cc2)=Nc2nc3ccccn3c2C1=O | Mean G% - G% | 11,88% |
| C[C@@H]1NC(c2ccc(Br)cc2)=Nc2nc3ccccn3c2C1=O | Mean G% - G% | 54,74% |

Proceed to the following item.
Send back MDA-MB-468 Mean G% - G% of C[C@@H]1NC(c2csc3ccccc23)=Nc2nc3ccccn3c2C1=O only.
4,18%

---

- System: UACC-62
- test.summary: NCI-60 SRB assay, UACC-62 (Melanoma)
- Assay type: cell-based, human
- measurement.conditions: 10 µM, 48 h, growth vs untreated control
Measured G% values are reported for all entries that follow.

Worked set:
| compound | G% |
| --- | --- |
| C[C@@H]1NC(c2csc3ccccc23)=Nc2nc3ccccn3c2C1=O [Compound 8] | 86,94% |
| C[C@@H]1NC(c2ccc(Br)cc2)=Nc2nc3ccccn3c2C1=O [JMV5038] | 49,23% |
| [N-]=[N+]=NCCCC[C@@H]1NC(c2ccc(Br)cc2)=Nc2nc3ccccn3c2C1=O [Compound 16] | 79,83% |

Next item in the queue.
Consider the compound C[C@@H]1NC(c2ccc(N=[N+]=[N-])cc2)=Nc2nc3ccccn3c2C1=O [Compound 5] . State its measured G%.
67,29%

---

- Test system: HS 578T
- test.summary: NCI-60 SRB assay, HS 578T (Breast Cancer)
- Assay type: cell-based, human
- measurement.conditions: 10 µM, 48 h
Entries and their measured Mean G% - G% follow.

| chemical.structure | study.target | Mean G% - G% |
| --- | --- | --- |
| [N-]=[N+]=NCCCC[C@@H]1NC(c2ccc(Br)cc2)=Nc2nc3ccccn3c2C1=O | HS 578T | -1,51% |
| C[C@@H]1NC(c2ccc(N=[N+]=[N-])cc2)=Nc2nc3ccccn3c2C1=O | HS 578T | -10,95% |
| C[C@@H]1NC(c2csc3ccccc23)=Nc2nc3ccccn3c2C1=O | HS 578T | 15,40% |

Now look at this entry.
Tell me measured Mean G% - G% for C[C@@H]1NC(c2ccc(Br)cc2)=Nc2nc3ccccn3c2C1=O please.
-17,10%

---

- Test system: A375 melanoma cells
- test.summary: Neutral red uptake (NRU) viability assay, A375
- Format: cell-based, human
- measurement.conditions: up to 40 µM

| molecule | cytotoxic activity on A375 (in words) |
| --- | --- |
| C[C@@H]1NC(c2c[nH]c3ccccc23)=Nc2nc3ccccn3c2C1=O [9′] | totally inactive |
| [N-]=[N+]=NCCCC[C@@H]1NC(c2ccccc2)=Nc2nc3ccccn3c2C1=O [Compound 18] | totally inactive |
| C[C@@H]1NC(c2ccc(C(=O)c3ccccc3)cc2)=Nc2nc3ccccn3c2C1=O [Compound 6] | totally inactive |
